tested on: COLO 205 colon; test: NCI tumour cell line growth inhibition, 48 h
measure: TGI

Solved entries (count: 3):
Lab note: CC(C)(C)C(=O)OCC1CCC(n2cnc3c(=O)[nH]c(N)nc32)O1 (stereo unspecified) gave TGI of > 100 µM

Lab note: `O=S1Nc2c(Cl)cc(Cl)c3c(Cl)cc(Cl)c(c23)N1` gave TGI of > 100 µM

Lab note: `O=C1/C(=C\c2ccccn2)c2ccccc2N1c1c(Cl)cccc1Cl` gave TGI of 4.81 µM

Next:
Lab note: C=CCO[C@]1(CC=C)C(=O)C(=O)OC1C1COC(C)(C)O1 (stereo partly specified) gave TGI of 37.5 µM

Lab note: `CCOC(=O)/C(C#N)=C/c1ccnc2ccccc12` gave TGI of > 100 µM

Lab note: `Cc1noc(NC2=CC(=O)C(=O)c3ccccc32)c1C` gave TGI of > 100 µM

Lab note: CC(C)(C)C(=O)OC12/C(=N/O)CCCCCC1c1ccccc12 (stereo unspecified) gave TGI of 31.3 µM

Lab note: `COc1cc(-c2nc(-c3nc4ccccc4[nH]3)cc3c2[nH]c2ccccc23)cc(OC)c1OC` gave TGI of > 100 µM
